Attribution: PubChem BioAssay (NCI)

experiment: NCI Yeast Anticancer Drug Screen. Data for the rad14 strain (AID 159);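 further: 0% = growth of vehicle-treated control cultures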; conditions: S. cerevisiae rad14 strain growth inhibition; at 11.0 µM
About 79,000 compounds went through this panel and 15% of them were active in at least one assay; those are over-represented in the sample as a whole. Calls of active or inactive are those of the source. No stated cut-off is given here; in the data, active means growth inhibition above about 70%; inactive means the rest.
Outcome (select one): class 1 (active), class 0 (inactive)

- compound: "O=C1OC(c2ccc(Cl)cc2)Sc2ccccc21 (stereo unspecified)"
  discrete.label: "class 0"
- compound: "O=S(=O)(O)c1ccc2c(N=Nc3c(O)ccc4ccccc34)cccc2c1"
  discrete.label: "class 0"
- compound: "Cc1ccc(Cl)c2c(=O)c3ccccc3[nH]c12"
  discrete.label: "class 0"
- compound: "CCN(CC)CCSc1c2ccccc2nc2cc(NCC(=O)Nc3ccccc3-c3ccccc3NC(=O)CNc3ccc4c(SCCN(CC)CC)c5ccccc5nc4c3)ccc12"
  discrete.label: "class 0"
- compound: "CC(=O)CC[N+](C)(C)C"
  discrete.label: "class 0"
- compound: "CCOC(=O)c1[nH]c2cccc3c2c1CC(Br)C3=O (stereo unspecified)"
  discrete.label: "class 0"

What outcome does the record of this test show for Cc1cnccc1N=Nc1ccc(N(C)C)cc1 ? class 0

What outcome does the record of this test show for C[n+]1c(-c2ccc(NC(=O)c3ccc(C(=O)Nc4ccc(-c5cn6ccccc6[n+]5C)cc4)cc3)cc2)cn2ccccc21 ? class 0

What outcome does the record of this test show for Oc1ccc(Cc2nccc3cc(O)c(O)cc23)cc1O ? class 0

What outcome does the record of this test show for CN1CCN(c2ccc3nc(-c4ccc5nc(-c6ccc(O)cc6)[nH]c5c4)[nH]c3c2)CC1 ? class 1

What outcome does the record of this test show for O=c1[nH]cc(F)c(=O)[nH]1 ? class 0
